Data provenance is PubChem BioAssay (NCI).

assay: NCI Yeast Anticancer Drug Screen. Data for the mec2-1 strain (AID 157); conditions: S. cerevisiae mec2-1 strain, at 50.0 µM, hits give high values
The panel holds about 79,000 compounds, 15% with a hit somewhere; the sample as a whole holds those more often.
Listed here are molecules together with their documented growth inhibition.
propertyLabel: growth inhibition (%)

> print(dat)
                                    molecule      propertylabel  numericreadout
 1  CCCN1CN(C(C(=O)N[C@@H]2C(=O)N3C(C(=O)O)=C(C)CSC23)c2ccc(O)cc2)CSC1=S (stereo partly specified)  growth inhibition            7.15
 2  CCOC(=O)NC(Nc1ccc(C(=O)OCC)cc1)(C(F)(F)F)C(F)(F)F  growth inhibition            3.25
 3  Cc1ccc(NC(=O)OCC2CC3C=CC2C3)cc1NC(=O)OCC1CC2C=CC1C2 (stereo unspecified)  growth inhibition           -14.3
 4          Cc1ccc(CS(=O)(=O)c2ccc(C)cc2)cc1  growth inhibition           -0.45
 5  O=c1oc2c(ccc3ccccc32)c(O)c1-c1cccc2ccccc12  growth inhibition            99.5
 6                          O=C(O)CCNc1cccs1  growth inhibition           -1.75
 7     C=C(C)CC(O)CCCCC (stereo unspecified)  growth inhibition           -5.85
 8          Nc1nnc(-c2ccc(-c3nnc(N)o3)cc2)o1  growth inhibition           -12.9
 9  CCCCC1(NN=C2CCCCC2)C(=O)N(c2ccccc2)N(c2ccccc2)C1=O  growth inhibition            -6.2
10                        C[Si](C)(C)N1CCCC1  growth inhibition           -26.9
11  COc1cc2c(cc1OC)C(Cc1cc(Br)c(OC)c(OC)c1)=[N+](C)CC2  growth inhibition             4.4
12          Cc1nc(Nc2ccccc2)c(C#N)c(=O)[nH]1  growth inhibition           -16.4
13  Nc1[nH]c(=S)[nH]c(=O)c1NS(=O)(=O)c1ccccc1  growth inhibition            -1.6
14                     Cc1ccccc1NCS(=O)(=O)O  growth inhibition           -18.3
15  COC(=O)CCSCC(N)C(=O)O (stereo unspecified)  growth inhibition           -2.95
16  O=C(O)C1CCN(Cc2oc(CO)cc(=O)c2O)C1 (stereo unspecified)  growth inhibition           -19.7
17  [Cu+2].[NH-]C(Cc1ccc(O)cc1)C(=O)O.[NH-]C(Cc1ccc(O)cc1)C(=O)O (stereo unspecified)  growth inhibition            1.55
18      Nc1ccccc1C(=O)/C=C/c1c(O)ccc2ccccc12  growth inhibition             9.5
19                  CC(C)NC(=O)c1ccc(CON)cc1  growth inhibition            -9.7
20              N=c1c(-c2ccccc2)cc2ccccc2n1O  growth inhibition            10.3
21  COC(C)CCOC(=O)c1ccccc1C (stereo unspecified)  growth inhibition            -6.1
22                       Fc1ccc(Cl)c2cccnc12  growth inhibition            9.85
23    C=CCOC(=O)CC(O)(CC(=O)OCC=C)C(=O)OCC=C  growth inhibition           -17.9
24                               CC=C=C(C)CN  growth inhibition            -3.8
25  Oc1c(Cl)cc(Cl)cc1C=Nc1cc(C(F)(F)F)ccc1N1CCc2ccccc2C1  growth inhibition            0.25
26                                     O=CCS  growth inhibition            4.85
